Readings of activation at 1 µM for the listed compounds
Target: GnRHR (Homo sapiens)
Construct: host or cells: CHO-K1 (CHO-K1/GnRHR/Ga15)
Sequence (P30968 whole entry): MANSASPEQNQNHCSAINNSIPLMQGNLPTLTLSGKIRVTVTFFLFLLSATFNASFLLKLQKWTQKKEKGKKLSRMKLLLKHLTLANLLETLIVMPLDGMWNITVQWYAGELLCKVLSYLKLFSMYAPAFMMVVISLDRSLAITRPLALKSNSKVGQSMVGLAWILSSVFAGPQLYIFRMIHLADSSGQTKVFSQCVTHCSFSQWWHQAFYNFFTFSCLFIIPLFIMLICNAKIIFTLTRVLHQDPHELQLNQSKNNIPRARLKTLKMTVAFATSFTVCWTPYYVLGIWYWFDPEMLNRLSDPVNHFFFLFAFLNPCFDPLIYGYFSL
Assay: Calcium assay in CHO-K1 cells (Genscript), FLIPR
Assay type: cell-based
Settings: CHO-K1/GnRHR/Ga15 cells, relative to agonist control, read-out: GNRHR Stimulation at 1 μM
Non-standard residues stand in square brackets, D forms with d. Residues, ends and D or L forms follow the SMILES beside them. *: point of attachment. dHis(τ-Bn) = N[C@H](Cc1cn(Cc2ccccc2)cn1)C(=O)O; d2Nal = N[C@H](Cc1ccc2ccccc2c1)C(=O)O; pGlu = O=C1CC[C@@H](C(=O)O)N1; tBu = CC(C)(C)*
Write down the numeric answer in % and omit the unit.

Check out these entries, answers already filled in.
compound: CCNC(=O)[C@@H]1CCCN1C(=O)[C@H](CCCNC(=N)N)NC(=O)[C@H](CC(C)C)NC(=O)[C@@H](CC(C)C)NC(=O)[C@H](Cc1c[nH]cn1)NC(=O)[C@H](CO)NC(=O)[C@H](Cc1c[nH]c2ccccc12)NC(=O)[C@H](Cc1c[nH]cn1)NC(=O)[C@@H]1CCC(=O)N1 [Compound 42] ([pGlu]HWSH[dL]LRP-NHEt)
measured-on: GnRHR (Homo sapiens)
observable: activation at 1 µM
value: 102
--
compound: CCNC(=O)[C@@H]1CCCN1C(=O)[C@H](CCCNC(=N)N)NC(=O)[C@H](CC(C)C)NC(=O)[C@@H](Cc1cn(Cc2ccccc2)cn1)NC(=O)[C@H](Cc1c[nH]cn1)NC(=O)[C@H](CO)NC(=O)[C@H](Cc1c[nH]c2ccccc12)NC(=O)[C@H](Cc1c[nH]cn1)NC(=O)[C@@H]1CCC(=O)N1 [Compound 56] ([pGlu]HWSH[dHis(τ-Bn)]LRP-NHEt)
measured-on: GnRHR (Homo sapiens)
observable: activation at 1 µM
value: 96
--
compound: NC(=O)CNC(=O)[C@@H]1CCCN1C(=O)[C@H](Cc1ccc(O)cc1)NC(=O)[C@H](Cc1c[nH]c2ccccc12)NC(=O)[C@@H](Cc1c[nH]c2ccccc12)NC(=O)[C@H](Cc1ccc(O)cc1)NC(=O)[C@H](CO)NC(=O)[C@H](Cc1c[nH]c2ccccc12)NC(=O)[C@H](Cc1c[nH]cn1)NC(=O)[C@@H]1CCC(=O)N1 [Compound 64] ([pGlu]HWSY[dW]WYPG-NH2)
measured-on: GnRHR (Homo sapiens)
observable: activation at 1 µM
value: 50
--
compound: CCNC(=O)[C@@H]1CCCN1C(=O)[C@H](Cc1ccc(O)cc1)NC(=O)[C@H](CC(C)C)NC(=O)[C@@H](COC(C)(C)C)NC(=O)[C@H](Cc1c[nH]cn1)NC(=O)[C@H](CO)NC(=O)[C@H](Cc1c[nH]c2ccccc12)NC(=O)[C@H](Cc1c[nH]cn1)NC(=O)[C@@H]1CCC(=O)N1 [Compound 11] ([pGlu]HWSH[dS](tBu)LYP-NHEt)
measured-on: GnRHR (Homo sapiens)
observable: activation at 1 µM
value: 76
--
compound: CCNC(=O)[C@@H]1CCCN1C(=O)[C@H](CCCNC(=N)N)NC(=O)[C@H](Cc1c[nH]c2ccccc12)NC(=O)[C@@H](CC(C)C)NC(=O)[C@H](Cc1c[nH]cn1)NC(=O)[C@H](CO)NC(=O)[C@H](Cc1c[nH]c2ccccc12)NC(=O)[C@H](Cc1c[nH]cn1)NC(=O)[C@@H]1CCC(=O)N1 [Compound 47] ([pGlu]HWSH[dL]WRP-NHEt)
measured-on: GnRHR (Homo sapiens)
observable: activation at 1 µM
value: 119

Reported activation at 1 µM for NC(=O)CNC(=O)[C@@H]1CCCN1C(=O)[C@H](Cc1ccc(O)cc1)NC(=O)[C@H](Cc1c[nH]c2ccccc12)NC(=O)[C@@H](Cc1ccc2ccccc2c1)NC(=O)[C@H](Cc1c[nH]cn1)NC(=O)[C@H](CO)NC(=O)[C@H](Cc1c[nH]c2ccccc12)NC(=O)[C@H](Cc1c[nH]cn1)NC(=O)[C@@H]1CCC(=O)N1 [Compound 33] ([pGlu]HWSH[d2Nal]WYPG-NH2) was 67
